Some binders, each annotated with its measured koff.
target system: T1, Taq DNA polymerase (Thermus aquaticus, UniProt P19821 1-832)
T1 construct: also called Taq enzyme; Taq DNA enzyme
T1 sequence (P19821 whole entry): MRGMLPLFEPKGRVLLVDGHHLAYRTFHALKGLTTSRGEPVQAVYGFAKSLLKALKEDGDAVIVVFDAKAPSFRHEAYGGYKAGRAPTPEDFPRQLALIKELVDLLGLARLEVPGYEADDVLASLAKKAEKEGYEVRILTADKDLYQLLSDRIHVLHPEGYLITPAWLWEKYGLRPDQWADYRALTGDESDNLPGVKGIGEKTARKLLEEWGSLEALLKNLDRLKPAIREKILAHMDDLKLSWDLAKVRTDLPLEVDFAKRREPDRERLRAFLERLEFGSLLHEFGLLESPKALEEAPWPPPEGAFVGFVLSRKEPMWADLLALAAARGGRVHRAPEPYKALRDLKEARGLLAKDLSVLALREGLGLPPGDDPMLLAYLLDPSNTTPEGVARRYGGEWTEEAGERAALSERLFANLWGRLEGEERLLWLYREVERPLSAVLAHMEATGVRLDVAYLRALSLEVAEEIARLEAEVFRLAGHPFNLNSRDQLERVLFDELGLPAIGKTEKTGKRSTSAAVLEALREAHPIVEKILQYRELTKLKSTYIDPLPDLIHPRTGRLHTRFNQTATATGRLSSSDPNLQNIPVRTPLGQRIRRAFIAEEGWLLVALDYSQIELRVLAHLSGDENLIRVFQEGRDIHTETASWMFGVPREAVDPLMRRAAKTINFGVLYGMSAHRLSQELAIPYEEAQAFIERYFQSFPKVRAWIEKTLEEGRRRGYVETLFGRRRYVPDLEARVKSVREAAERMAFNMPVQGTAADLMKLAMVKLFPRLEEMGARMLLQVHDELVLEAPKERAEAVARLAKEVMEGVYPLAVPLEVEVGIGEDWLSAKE
protocol: AMC sensor, antibody immobilised
Give the number; s⁻¹ is assumed, so skip it.

Sure, the documented koff for Mutation 1-35 (antibody, V domains shown, Mutation 1 background; CDRs built) VH: QVQLQQPGAELVKPGASVRLSCQTSVDTFTTYYIYWVKQRPGEGLEWIGGVNPTSNPVFNEKFKSKATLTVDTSSSTAYMQLSSLTSVDSAVYYCTRSLIRRGYYFDYWGQGTALTVSS VL: DIQMTQTTSSLSASLGDRVTISCRASQDINNYINWYQQKPDGTIKLLIYYTSRLNSGLPSRFSGSGSGTDYSLTIANLEQEDIATYFCQQDDTLPVTFGAGTKVELKR is 3.7e-05

Given item Mutation 1-47 (antibody, V domains shown, Mutation 1 background; CDRs built) VH: QVQLQQPGAELVKPGASVRLSCQTSVDTFTTYYIYWVKQRPGEGLEWIGGVNPTSNPVFNEKFKSKATLTVDTSSSTAYMQLSSLTSVDSAVYYCTRSIIRRGYYFDYWGQGTALTVSS VL: DIQMTQTTSSLSASLGDRVTISCRASQDINNYINWYQQKPDGTIKLLIYYTSRLNSGLPSRFSGSGSGTDYSLTIANLEQEDIATYFCQQDDTIPVTFGAGTKVELKR , the value recorded as its koff is 4.67e-05

Value of measured koff for the entry Mutation 1-14 (antibody, V domains shown, Mutation 1 background; CDRs built) VH: QVQLQQPGAELVKPGASVRLSCQTSVETFSTYYIYWVKQRPGEGLEWIGGLNPTSNPVFNEKFKSKATLTVDTSSSTAYMQLSSLTSVDSAVYYCTRSVIRRGYYFDYWGQGTALTVSS VL: DIQMTQTTSSLSASLGDRVTISCRASQDIQNYLNWYQQKPDGTIKLLIYYTSRLHSGLPSRFSGSGSGTDYSLTIANLEQEDIATYFCQQDDTVPLTFGAGTKVELKR : 1.92e-05
